assay: CD melting experiments of multiple N2-modified G-quadruplexes in low salt; type: physicochemical; details: low salt (1 mM KPi+1 mM KCl), CD at 290 nm
valueKind: Δ Tm

SEQ ID NO:41: designed to contain a modification in each groove of the G-quadruplex nanoparticle (TTNGGTTANGNTTANGGTTAGGGA; DNA, backbone and the base at N not given here; N2-modified guanines at marked positions) :: +26.6 °C
SEQ ID NO:43: contains a variety of 8 N2-modifications aimed to maximize the thermal stability (TTNGGTTANGNTTANGNTTANGNA; DNA, backbone and the base at N not given here; further chemistry not fully specified) :: +35.6 °C
SEQ ID NO:38: contains two ^HexG substitutions into separate grooves in positions that were highly stabilizing in the single-substitutions studies (TTNGGTTANGGTTAGGGTTAGGGA; two N2-hexyl guanine modifications, chemistry not fully specified) :: +6.9 °C
SEQ ID NO:42: containing eight ^HexG modifications towards the design of a "Ball with Hair" type of nanoparticle (TTNNGTTANGNTTANGNTTAGNNA; eight N2-hexyl guanine modifications, chemistry not fully specified) :: +46.2 °C
SEQ ID NO:39: contains two ^MetG substitutions of guanines that neighbors within the wide groove (TTGGGTTAGNNTTAGGGTTAGGGA; two N2-methyl guanine modifications, chemistry not fully specified) :: +18.2 °C
